Each entry below carries its reported pIC50.
Target: protein A (a kinase)
Assay: Inhibition of protein A kinase activity (33P-ATP peptide phosphorylation, filter, scintillation counting)
Conditions: Table 2; 10 μM [gamma-33P]-ATP, 10 μM peptide substrate, 40 minutes at room temperature
API: returns pIC50 as number; meaning -log10 of concentration in mol/L.

In: Output pIC50 of C#CC(=O)Nc1cccc(-c2cc(NC(=O)c3cc4nccnc4s3)[nH]n2)c1
Out: 7.89

In: Output pIC50 of CC#CC(=O)Nc1cccc(-c2cc(NC(=O)c3cc4c(s3)CCOC4)[nH]n2)c1
Out: 7.72

In: Output pIC50 of C#CC(=O)Nc1cccc(-c2cc(NC(=O)c3cc4c(s3)CCOC4)[nH]n2)c1
Out: 8.40

In: Output pIC50 of O=C(Nc1cc(-c2cccc(NS(=O)(=O)N3CCOCC3)c2)n[nH]1)c1cc2nccnc2s1
Out: 7.21

###

Molecular target: protein A (a kinase)
Assay: Inhibition of protein A kinase activity (33P-ATP peptide phosphorylation, filter, scintillation counting)
Type: biochemical
Details: Table 3; given with negative sign
Description: The hit compound derivatives synthesized as real compounds through Example 3 were evaluated for ability to inhibit the activity of protein A (a kinase). Specifically, […] of protein A was incubated along with 8 mM MOPS (pH 7.0), 0.2 mM EDTA, 10 mM magnesium acetate, 10 μM [gamma-33P]-ATP, and 10 μM […], which is a phosphorylation target peptide. After incubation at room temperature for 40 minutes, the reaction was terminated by adding phosphoric acid to a final concentration of 0.5%. […]
Each entry below carries its reported pIC50 (experimental).
Answer with a bare number; do not write a unit.

// solved cases for pIC50 (experimental) follow
Compound	pIC50 (experimental)
CC#CC(=O)Nc1cccc(-c2cc(NC(=O)c3cc4c(s3)CCOC4)[nH]n2)c1	7.72
O=C(Nc1cc(-c2cccc(NS(=O)(=O)N3CCOCC3)c2)n[nH]1)c1cccc2ncsc12	6.89
O=C(Nc1cc(-c2cccc(NS(=O)(=O)N3CCOCC3)c2)n[nH]1)c1cc2nccnc2s1	7.21
C#CC(=O)Nc1cccc(-c2cc(NC(=O)c3cc4ncc(O)nc4s3)[nH]n2)c1	7.4
C#CC(=O)Nc1cccc(-c2cc(NC(=O)c3cc4ccc(O)cc4o3)[nH]n2)c1 [Compound D0135]	7.2

In: Jot down pIC50 (experimental) (protein A (a kinase)) of CC#CC(=O)Nc1cccc(-c2cc(NC(=O)c3cc4cc(OC)ccc4o3)[nH]n2)c1 .
Out: 7.52

In: Jot down pIC50 (experimental) (protein A (a kinase)) of C#CC(=O)Nc1cccc(-c2cc(NC(=O)c3cc4ccc(O)cc4o3)[nH]n2)c1 [Compound D0139] .
Out: 7.66

In: Jot down pIC50 (experimental) (protein A (a kinase)) of C#CC(=O)Nc1cccc(-c2cc(NC(=O)c3cc4ncc(C(=O)O)nc4s3)[nH]n2)c1 .
Out: 8.15

In: Jot down pIC50 (experimental) (protein A (a kinase)) of CC#CC(=O)Nc1cccc(-c2cc(NC(=O)c3cc4c(s3)CC(=O)NC4)[nH]n2)c1 .
Out: 8.1

In: Jot down pIC50 (experimental) (protein A (a kinase)) of CC(C)(C)C(=O)Nc1cccc(-c2cc(NC(=O)c3nc4cccnc4s3)[nH]n2)c1 .
Out: 6.92

In: Jot down pIC50 (experimental) (protein A (a kinase)) of C#CC(=O)Nc1cccc(-c2cc(NC(=O)c3cc4nccnc4s3)[nH]n2)c1 .
Out: 7.89

In: Jot down pIC50 (experimental) (protein A (a kinase)) of CC#CC(=O)Nc1cccc(-c2cc(NC(=O)c3cc4c(s3)CCNC4)[nH]n2)c1 .
Out: 7.51

In: Jot down pIC50 (experimental) (protein A (a kinase)) of C#CC(=O)Nc1cccc(-c2cc(NC(=O)c3cc4c(s3)CCOC4)[nH]n2)c1 .
Out: 8.4

In: Jot down pIC50 (experimental) (protein A (a kinase)) of C#CC(=O)Nc1cccc(-c2cc(NC(=O)c3cc4ncc(C(N)=O)nc4s3)[nH]n2)c1 .
Out: 8

In: Jot down pIC50 (experimental) (protein A (a kinase)) of C#CC(=O)Nc1cccc(-c2cc(NC(=O)c3ccc4nonc4c3)[nH]n2)c1 .
Out: 7.58

###

Molecular target: protein A (a kinase)
Experiment: Inhibition of protein A kinase activity (33P-ATP peptide phosphorylation, filter, scintillation counting)
Conditions: Table 2; 10 μM [gamma-33P]-ATP, 10 μM peptide substrate, 40 minutes at room temperature
Assay endpoint: pIC50
API: returns pIC50 as number; meaning -log10 of concentration in mol/L.

// solved cases for pIC50 follow
Molecule	Target desc	pIC50
C#CC(=O)Nc1cccc(-c2cc(NC(=O)c3cc4ncc(O)nc4s3)[nH]n2)c1 [Compound D0137]	protein A (a kinase)	7.40
C#CC(=O)Nc1cccc(-c2cc(NC(=O)c3cc4ncc(C(N)=O)nc4s3)[nH]n2)c1 [DM010]	protein A (a kinase)	8.00
O=C(Nc1cc(-c2cccc(NS(=O)(=O)N3CCOCC3)c2)n[nH]1)c1cccc2ncsc12 [Compound D0083]	protein A (a kinase)	6.89
C#CC(=O)Nc1cccc(-c2cc(NC(=O)c3cc4ncc(C(=O)O)nc4s3)[nH]n2)c1 [DM009]	protein A (a kinase)	8.15
CC#CC(=O)Nc1cccc(-c2cc(NC(=O)c3cc4cc(OC)ccc4o3)[nH]n2)c1 [Compound D0069]	protein A (a kinase)	7.52

In: Output pIC50 of C#CC(=O)Nc1cccc(-c2cc(NC(=O)c3cc4ccc(O)cc4o3)[nH]n2)c1 [Compound D0135]
Out: 7.20

In: Output pIC50 of CC#CC(=O)Nc1cccc(-c2cc(NC(=O)c3cc4c(s3)CC(=O)NC4)[nH]n2)c1 [Compound D1011]
Out: 8.10

In: Output pIC50 of CC#CC(=O)Nc1cccc(-c2cc(NC(=O)c3cc4c(s3)CCNC4)[nH]n2)c1 [Compound D1010]
Out: 7.51

###

Molecular target: protein A (a kinase)
Experiment: Inhibition of protein A kinase activity (33P-ATP peptide phosphorylation, filter, scintillation counting)
Conditions: Table 2; 10 μM [gamma-33P]-ATP, 10 μM peptide substrate, 40 minutes at room temperature
Each entry below carries its reported IC50.
Numeric answer only, unit nM assumed.

// solved cases for IC50 follow
Compound	Target desc	IC50, nM
C#CC(=O)Nc1cccc(-c2cc(NC(=O)c3cc4ccc(O)cc4o3)[nH]n2)c1 [Compound D0139]	protein A (a kinase)	22
C#CC(=O)Nc1cccc(-c2cc(NC(=O)c3ccc4nonc4c3)[nH]n2)c1 [Compound D0054]	protein A (a kinase)	26

// switching to the query compound
In: Output IC50 of CC(C)(C)C(=O)Nc1cccc(-c2cc(NC(=O)c3nc4cccnc4s3)[nH]n2)c1 [Compound D0065]
Out: 119
